# STUDY_SYSTEM: MeCP2-TBL1 interaction (MeCP2-SmBiT / TBL1-LgBiT) (Mus musculus, UniProt Q9QXE7)
# Construct: expressed in transfected cells; crude lysate used as a cell-free assay
# ASSAY_NAME: MeCP2-TBL1 NanoLuc luciferase complementation assay (cell-free, extracts of transfected HEK293 cells);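 also: each compound tested at 20 µM final concentration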
# Type: binding, human
# CONDITIONS_USED: primary screen of the Asinex library, sheet "Sargen output Asinex library", one well per compound, Batch Ref. 1
PARAMETER: Inhibition percent (%)
Give bare numbers, in %.

Take a look at these entries with their results.
O=C1CCCN1CCOc1cccc(C(=O)N2C3CCC2CC(Cc2cnc4[nH]ccc4c2)C3)c1 (centres unmarked) :: -0.20
COc1ccccc1NC(=O)C1CN(C(=O)COc2ccccc2)Cc2cn(C)nc21 (centres unmarked) :: -4.37
CN(C)c1ncc(-c2cccc(F)c2)c(C2CCCCN2C(=O)COc2ccccc2)n1 (centres unmarked) :: 34.22

Can you give me Inhibition percent for all of these, one by one?
1. COc1ccc2c(c1)[C@H]1OCC3(CCN(S(C)(=O)=O)CC3)C[C@@H]1C(C)(C)O2
2. CC1(C)Oc2cc(O)ccc2[C@H]2OCC3(CCN(C(=O)c4ncccc4O)CC3)C[C@@H]21

[-0.51, -1.26]

Can you give me Inhibition percent for all of these, one by one?
1. CC(=O)N[C@@]12CN(C)CC[C@@H]1[C@@H](c1ccccc1)N(CC(=O)Nc1ccc3c(c1)nc(C)n3C)C2
2. Cn1ccnc1-c1nccnc1C1CCN(C(=O)c2ccnc(Cc3cccc(F)c3)c2)CC1
3. CS(=O)(=O)c1ccc(CN2CCC3(CC2)Oc2ccc(Cl)cc2[C@H]2OCCC[C@@H]23)cc1

1: 4.04; 2: -2.61; 3: -0.96

----------
# System: PRKACA-PRKAR2A interaction (SmBiT-PRKACA / LgBiT-PRKAR2A), protein kinase A
# Design: NanoLuc complementation counter-screen in cell extract, PRKACA with PRKAR2A, loss of luminescence, detects NanoLuc interference
# CONDITIONS_USED: counter-screen for NanoLuc interference; 0.5 h, 20 µM; inhibitor
PARAMETER: Inh (PKA)
In your response, put the unit directly after the numeric value.

Cc1cc(C)c(S(=O)(=O)n2cc(C)cc2C)c(C)c1 [UM0142646:01, HJC 0350] :: 24.94%
C=CC(=O)c1ccc2ccccc2c1 [UM0141853:01, ZM 449829] :: 8.312%

Can you give me Inh (PKA) for all of these, one by one?
1. CCOC(=O)C1=C(C)NC(C)=C(C(=O)OCC)C1c1ccccc1/C=C/C(=O)OC(C)(C)C [UM0142247:01, Lacidipine]
2. COc1ccc(-n2c(SCCCN3C(=O)c4cccc5cccc(c45)C3=O)nnc2-c2ccncc2)cc1 [UM0141857:01, WIKI4]

92.96%
17.99%

----------
# STUDY_SYSTEM: MeCP2-TBL1 interaction (MeCP2-SmBiT / TBL1-LgBiT) (Mus musculus)
# Construct: expressed in transfected cells; crude lysate used as a cell-free assay
# Sequence (Q9QXE7 166-527): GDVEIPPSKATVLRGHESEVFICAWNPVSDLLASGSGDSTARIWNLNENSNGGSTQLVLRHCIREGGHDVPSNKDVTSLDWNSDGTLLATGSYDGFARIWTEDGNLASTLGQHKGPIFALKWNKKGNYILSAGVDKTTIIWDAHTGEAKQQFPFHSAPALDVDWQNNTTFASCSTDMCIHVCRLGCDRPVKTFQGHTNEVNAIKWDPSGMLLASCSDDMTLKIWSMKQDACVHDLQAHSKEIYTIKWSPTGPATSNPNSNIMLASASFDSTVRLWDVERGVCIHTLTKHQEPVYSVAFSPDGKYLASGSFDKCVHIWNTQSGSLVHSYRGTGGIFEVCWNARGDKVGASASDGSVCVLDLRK
# ASSAY_NAME: MeCP2-TBL1 NanoLuc luciferase complementation assay (cell-free, extracts of transfected HEK293 cells);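 also: each compound tested at 20 µM final concentration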
# Assay type: binding, human
# CONDITIONS_USED: primary screen of the Asinex library, sheet "Sargen output Asinex library", one well per compound
PARAMETER: Inhibition percent (%)
Give bare numbers, in %.

Take a look at these entries with their results.
Cc1ccc2ncnc(NCCC(=O)N3CCCCC3c3cc(C(=O)NC4CCCC4)[nH]n3)c2c1 (stereo not shown) :: 0.99
O=C1COC2(CCCN(C(=O)c3cccc4cccnc34)CC2)CN1CCc1ccccc1 (stereo not shown) :: -0.70
CC(=O)N[C@@]12CN(C(C)=O)CC[C@@H]1[C@@H](c1ccccc1)N(CC(=O)Nc1cc(F)ccc1C)C2 :: 1.60

Can you give me Inhibition percent for all of these, one by one?
1. CNC(=O)c1cnc(C)nc1C1CCCCN1CCS(=O)(=O)c1ccccc1 (stereo not shown)
2. COc1ccccc1[C@@H]1CN(Cc2cccc(Oc3ncccn3)c2)C[C@]12CCCCC(=O)N2
3. COCC(=O)N1CCC(C)(C(=O)N2CCC[C@]3(C[C@@H](Oc4cccc(F)c4)CO3)C2)CC1
4. Cc1nonc1COc1ccccc1C(=O)N1CCCC(Cc2nccn3cccc23)CC1 (stereo not shown)
5. CN(Cc1ccc2ncccc2c1)C(=O)Cn1cc(C(=O)NCc2ccccc2)ccc1=O

[-1.44, -0.97, -4.50, 2.59, -0.72]

Can you give me Inhibition percent for all of these, one by one?
1. CN(Cc1cccc(F)c1)Cc1nc(C2CC(=O)N(Cc3ccccc3)C2)cc(N(C)C)n1 (stereo not shown)
2. Cc1nccn1Cc1cccc(C(=O)N2[C@H](Cc3ccccc3)C[C@]3(C)NC(=O)CCC[C@H]23)c1
3. COc1ccc2c(c1)[C@H]1OCC3(CCN(Cc4cnccn4)CC3)C[C@@H]1C(C)(C)O2
4. Cn1cc(-c2cc(C(=O)N3CCCC(c4cccc(-c5cccc(C(N)=O)c5)n4)C3)ccn2)cn1 (stereo not shown)
5. CC(=O)N1CCC2(C/C=C/C[C@H]3CN(C(=O)Cc4cccc(F)c4)CC[C@H]3NC(=O)CNC2=O)CC1
6. CNc1cccc(C2CCCN2Cc2ccc(-c3ccccc3C(=O)O)cc2)n1 (stereo not shown)
7. Fc1cccc(COc2ccccc2CN2CCOCC(Cc3cn4ccnc4cn3)C2)c1 (stereo not shown)
8. Oc1cccc2c1OC1(CCN(Cc3ccncc3)CC1)[C@H]1CCCO[C@H]21

[-0.99, -3.96, -2.69, -6.35, -2.58, -2.37, -1.22, -3.60]

----------
# System: PRKACA-PRKAR2A interaction (SmBiT-PRKACA / LgBiT-PRKAR2A), protein kinase A
# Design: NanoLuc complementation counter-screen in cell extract, PRKACA with PRKAR2A, loss of luminescence, detects NanoLuc interference
# CONDITIONS_USED: counter-screen for NanoLuc interference; 0.5 h, 20 µM; inhibitor
Exercise: state measured Inh (PKA) for each of the compounds provided.
Answers are plain numbers, in %.

Take a look at these entries with their results.
COc1cc(N2CCC(N3CCN(C)CC3)CC2)ccc1Nc1ncnc(Nc2ccccc2S(=O)(=O)C(C)C)n1 :: 2.084
CO[C@H]1C[C@@H]2CC[C@@H](C)[C@@](O)(O2)C(=O)C(=O)N2CCCC[C@H]2C(=O)O[C@H]([C@H](C)C[C@@H]2CC[C@@H](OCCO)[C@H](OC)C2)CC(=O)[C@H](C)/C=C(\C)[C@@H](O)[C@@H](OC)C(=O)[C@H](C)C[C@H](C)/C=C/C=C/C=C/1C [UM0141927:01, Everolimus (RAD001)] :: 0.7572
OC[C@H]1O[C@@H](n2cnc3c2N=CNC[C@H]3O)C[C@@H]1O :: 1.284

Can you give me Inh (PKA) for all of these, one by one?
1. CC(C)(C)NC(=O)N[C@H](C(=O)N1C[C@H]2[C@@H]([C@H]1C(=O)NC(CC1CCC1)C(=O)C(N)=O)C2(C)C)C(C)(C)C (some centres unmarked)
2. CC(C)Cc1ccc(C(C)C(=O)O)cc1 (centres unmarked)
3. Cn1cc(/C=C/C(=O)c2cccc(F)c2)cc1/C=C/C(=O)NO
4. COc1ccc(-n2nc(C(N)=O)c3c2C(=O)N(c2ccc(N4CCCCC4=O)cc2)CC3)cc1
5. CC1COc2c(N3CCN(C)CC3)c(F)cc3c(=O)c(C(=O)O)cn1c23 (centres unmarked)

1. 1.202
2. 3.005
3. 48.72
4. 1.88
5. -0.3552

Can you give me Inh (PKA) for all of these, one by one?
1. Cc1ccc(Sc2ccccc2N2CCNCC2)c(C)c1
2. NC(=O)Nc1sc(-c2ccc(F)cc2)cc1C(N)=O
3. O=S(=O)(c1ccccc1)N(CC(F)(F)F)c1ccc(C(O)(C(F)(F)F)C(F)(F)F)cc1

1: 18.25; 2: 19.86; 3: 30.09

Can you give me Inh (PKA) for all of these, one by one?
1. CN1CCC(CNc2ccc3ncc(-c4cccc(OC(F)(F)F)c4)n3n2)CC1 [UM0141756:01, SGI-1776 free base]
2. O=C(/C=C/c1ccccc1)NC(NC(=S)Nc1ccc(Cl)cc1)C(Cl)(Cl)Cl (centres unmarked)
3. CC1COC2(CCN(c3nc(=O)c4cc(C(F)(F)F)cc([N+](=O)[O-])c4s3)CC2)O1 (racemic) [UM0141871:01, BTZ043 Racemate]

1: 32.18; 2: 56.23; 3: 1.801
